molecular target: T1, recombinant human PCSK9 protein, His-tagged (Immunogen A, hPCSK9-His) (human, UniProt Q8NBP7 31-692, limits assumed, biotin-labelled in the ELISA and blocking assays (Biotin labeling kit)); assay: ELISA, biotin-hPCSK9-His on streptavidin plate; antibody 66.67 nM
T1 construct: also called human PCSK9-His; recombinant hPCSK9-His; not shown: His tag
recorded endpoint: OD450 nm
Could you kindly put the unit after your number?

Look up OD450 nm for this binder: 103C11E8, chimeric anti-PCSK9 mAb purified from hybridoma (antibody, V domains shown, From Harbour H2L2 mice: human variable regions, rat constant regions) VH: QVQLQESGPGLVKPSGTLSLTCAVSGGSISSSNWWSWVRQPPGKGLEWIGEIYHSGSTNYNPSLKSRVTISVDKSKNQFSLKLSSVTAADTAVYYCARGIAVAGTDVMDAWGQGASVTVSS VL: EIVLTQSPATLSLSPGERATLSCRASQSVSSYLVWYQQKSGQAPRLLIYGTSNRATGIPARFSGSGSGTDFTLTISSLEPEDFALYYCQQRGNWMYTFGQGTKLEIK
2.72 OD450 nm

Same question for 139G1C5, chimeric anti-PCSK9 mAb purified from hybridoma (antibody, V domains shown, From Harbour H2L2 mice: human variable regions, rat constant regions) VH: QVQLQESGPGLVKPSGTLSLTCAVSGGSISRNNWWSWVRQPPGKGLEWIGEIYHSGSTNYNPSLKSRVTISVDKSKNQFSLKLSSVTAADTAVYYCARDLLGIGLDYWGQGTLVTVSS VL: EFVLTQSPATLSLSPGERAILSCRASQSFSSYIAWYQQKPGQAPRLLIYDASNRATGIPARFSGSGSGTDFTLTISSLEPEDFAVYYCQQHSNWMYTFGQGTKLEIK please.
2.93 OD450 nm

Try 74C10A8, chimeric anti-PCSK9 mAb purified from hybridoma (antibody, V domains shown, From Harbour H2L2 mice: human variable regions, rat constant regions) VH: QVQLQESGPGLVKPSETLSLTCSVSGGSINTYYWSWIRQPPGKGLEWIGYIYYSGSTNYNPSLKSRVTISVDTSKNQFSLKLTSVTAADTAVYYCARERFTMVRGVMMDYYYYGMDVWGQGTTVTVSS VL: DIQLTQSPSFLSASVGDRVTITCRASQGISSYLAWYQQKPGKAPKLLIYAASTLQSGVPSRFSGSGSGTEFTLTISSLQPEDFATYYCQQLNSYPRTFGQGTKVEIK next.
2.98 OD450 nm

And then 76A1B11, chimeric anti-PCSK9 mAb purified from hybridoma (antibody, V domains shown, From Harbour H2L2 mice: human variable regions, rat constant regions) VH: QVQLVESGGGVVQPGRSLRLSCAATGFTFSIYGMHWVRQAPGKGLEWVAVIWYDGSNKYYADSVKGRFIISRDNSKNTLYLQMNSLRVEDTAVYYCVSDYFGSGNSYYYYGMDVWGQGTTVTVSS VL: DIQMTQSPSSLSASVGDRVTITCRASQVISNYLAWYQQKPGKVPKLLIYTASTLQSGVPSRFSGSGSGADFTLTISSLQPEDVATYYCQKYNSAPYTFGQGTKLEIK , what is it?
2.85 OD450 nm
